assay-system: menin-MLL interaction (Homo sapiens)
Sequence (O00255 whole entry): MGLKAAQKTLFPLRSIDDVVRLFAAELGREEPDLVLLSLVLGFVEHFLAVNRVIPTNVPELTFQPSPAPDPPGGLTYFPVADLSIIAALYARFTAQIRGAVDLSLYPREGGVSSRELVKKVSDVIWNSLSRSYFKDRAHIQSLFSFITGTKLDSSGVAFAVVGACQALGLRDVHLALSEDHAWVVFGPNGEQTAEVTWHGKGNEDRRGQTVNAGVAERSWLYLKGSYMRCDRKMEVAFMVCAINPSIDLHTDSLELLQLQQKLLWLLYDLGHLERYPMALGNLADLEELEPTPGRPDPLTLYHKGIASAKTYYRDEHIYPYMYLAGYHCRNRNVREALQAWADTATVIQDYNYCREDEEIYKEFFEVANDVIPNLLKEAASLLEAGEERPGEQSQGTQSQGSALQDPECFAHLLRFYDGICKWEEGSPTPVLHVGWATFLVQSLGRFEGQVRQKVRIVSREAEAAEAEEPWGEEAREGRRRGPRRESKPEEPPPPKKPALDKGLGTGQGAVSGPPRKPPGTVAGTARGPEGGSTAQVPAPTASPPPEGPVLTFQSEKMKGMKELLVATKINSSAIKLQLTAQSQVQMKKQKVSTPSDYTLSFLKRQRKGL
protocol-details: Fluorescence polarization (FP) competition assay
applied-conditions: menin / MLL 4-43 peptide
pIC50: −log10 of the molar value.
readout-name: pIC50

Give me pIC50 for each of these compounds, listed below.
1. Cc1c(CN2CCC(Nc3ncnc4sc(CC(F)(F)F)cc34)CC2)ccc2c1cc(C#N)n2CCN1CC2CN(S(C)(=O)=O)CC2C1 (stereo not drawn)
2. CNS(=O)(=O)N1CCN([C@H](C)Cn2c(C#N)cc3c(C)c(CN4CCC(Nc5ncnc6sc(CC(F)(F)F)cc56)CC4)ccc32)CC1
3. Cc1c(CN2CCC(Nc3ncnc4sc(CC(F)(F)F)cc34)CC2)ccc2c1cc(C#N)n2CCN1CC2(CCN(S(C)(=O)=O)C2)C1

6.00 to 6.60
6.00 to 6.60
6.00 to 6.60
